Item-by-item account of pIC50
SYSTEM_NAME: Recombinant human DGAT2 protein (Homo sapiens)
Construct: FLAG (DYKDDDDK); (N); made in house; host or cells: Sf-21 insect cells (BacPAK baculovirus system); used as a membrane preparation
Sequence (Q96PD7 1-388): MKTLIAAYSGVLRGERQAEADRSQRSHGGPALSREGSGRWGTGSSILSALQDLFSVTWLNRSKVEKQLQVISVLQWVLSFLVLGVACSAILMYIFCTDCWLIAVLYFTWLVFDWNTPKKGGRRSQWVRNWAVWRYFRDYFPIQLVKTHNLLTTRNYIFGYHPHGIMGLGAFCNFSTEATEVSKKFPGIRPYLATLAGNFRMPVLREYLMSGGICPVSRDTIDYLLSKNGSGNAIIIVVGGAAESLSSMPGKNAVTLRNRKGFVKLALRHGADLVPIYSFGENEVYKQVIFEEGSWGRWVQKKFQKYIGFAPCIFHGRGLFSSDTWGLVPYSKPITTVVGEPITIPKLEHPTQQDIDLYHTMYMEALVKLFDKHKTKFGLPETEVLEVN
ASSAY_OVERVIEW: Measurement of inhibitory effect against DGAT2 enzyme activity (SPA, Phospholipid FlashPlate, [14C]-TG production)
Assay type: biochemical
CONDITION_DESCRIPTION: concentration inhibiting [14C]-labeled triacyl glycerol (TG) production by 50%; 2 μg DGAT2-membrane protein from Sf-21 cells, 37° C.
pIC50: −log10 of the molar value.
METRIC: pIC50

COMPOUND	METRIC	PREFIX_OPERATOR	OBSERVED_RESULT
CCOc1ccccc1O[C@@H]1CCCN(c2nccc(NC(=O)Cc3ccc(OC(C)(C)C(=O)O)cc3)n2)C1	pIC50	=	6.14
CCOc1ccccc1O[C@@H]1CCCN(c2cncc(NC(=O)N[C@@H](Cc3ccccc3)C(=O)O)n2)C1	pIC50	=	4.80
CCOc1ccccc1O[C@@H]1CCCN(c2cncc(NC(=O)C3CCN(S(C)(=O)=O)CC3)n2)C1	pIC50	=	7.60
CCOc1ccccc1O[C@@H]1CCCN(c2cncc(NC(=O)C3CCN(C(C)=O)CC3)n2)C1	pIC50	=	6.41
CCOc1ccccc1O[C@@H]1CCCN(c2cncc(NC(=O)CCc3cc(F)c(C(=O)O)c(F)c3)n2)C1	pIC50	=	6.41
CCOc1ccccc1O[C@@H]1CCCN(c2cncc(NC(=O)Cc3ccc(C[C@H](C)C(=O)O)cc3)n2)C1	pIC50	=	6.92
CCOc1ccccc1O[C@@H]1CCCN(c2cncc(NC(=O)Cc3ccc(OCc4ccc(C(C)(C)C(=O)O)cc4)cc3)n2)C1	pIC50	=	7.15
CCOc1ccccc1O[C@@H]1CCCN(c2cncc(NC(=O)C3CCN(c4ncc(C(=O)O)cn4)CC3)n2)C1	pIC50	=	5.92
CCOc1ccccc1O[C@@H]1CCCN(c2cncc(NC(=O)Nc3ccc(CC(=O)O)cc3)n2)C1	pIC50	=	5.21
C=C(CNc1ccc(CCC(=O)O)cc1)C(=O)Nc1cncc(N2CCC[C@@H](Oc3ccccc3OCC)C2)n1	pIC50	=	5.89
CCOc1ccccc1O[C@@H]1CCCN(c2cncc(NC(=O)[C@@H]3CCCN(c4cccc(CC(C)(C)C(=O)O)c4)C3)n2)C1	pIC50	=	7.38
CCOc1ccccc1O[C@@H]1CCCN(c2cncc(NC(=O)c3ccc(Oc4ccc(C(=O)O)cc4)cc3)n2)C1	pIC50	=	5.68
CCOc1ccccc1O[C@@H]1CCCN(c2cncc(NC(=O)c3cc(F)c(N4CCC(C(=O)O)CC4)c(F)c3)n2)C1	pIC50	=	5.28
CCOc1ccccc1O[C@@H]1CCCN(c2ccnc(NC(=O)C(C)(C)c3ccc(CC(C)(C)C(=O)O)cc3)n2)C1	pIC50	=	6.39
CCOc1cccnc1O[C@@H]1CCCN(c2cncc(NC(=O)CCc3ccc(OC(C)(C)C(=O)O)cc3)n2)C1	pIC50	=	7.11
CCOc1ccccc1O[C@@H]1CCCN(c2cncc(NC(=O)CCc3ccc(C(=O)O)c(Cl)c3)n2)C1	pIC50	=	6.51
CCOc1ccccc1O[C@@H]1CCCN(c2cncc(NC(=O)N3CCCC3)n2)C1	pIC50	=	5.80
CCOc1ccccc1O[C@@H]1CCCN(c2cncc(NC(=O)C3CCN(CC(=O)O)CC3)n2)C1	pIC50	<	5.00
CCOc1ccccc1O[C@@H]1CCCN(c2cncc(NC(=O)C(C)(C)c3ccc(C(C)(C)C(=O)O)cc3)n2)C1	pIC50	=	6.11
CCOc1cccnc1O[C@@H]1CCCN(c2ccnc(NC(=O)C(C)(C)c3ccc(CC(C)(C)C(=O)O)cc3)n2)C1	pIC50	=	5.60
CCOc1ccccc1O[C@@H]1CCCN(c2cncc(NC(=O)C3CCC[C@H]3C(=O)O)n2)C1 (stereo partly drawn)	pIC50	=	5.40

---

SYSTEM_NAME: Recombinant human DGAT2 protein (Homo sapiens, UniProt Q96PD7)
Construct: FLAG (DYKDDDDK); (N); used as a membrane preparation
ASSAY_OVERVIEW: Measurement of inhibitory effect against DGAT2 enzyme activity (SPA, Phospholipid FlashPlate, [14C]-TG production)
CONDITION_DESCRIPTION: concentration inhibiting [14C]-labeled triacyl glycerol (TG) production by 50%; 2 μg DGAT2-membrane protein from Sf-21 cells, 37° C.
Consider the cut-off 1000 nM. If the recorded IC50 is strictly smaller, the label is YES; if not, the label is NO.

COMPOUND	CLASS_NAME
CCOc1ccccc1O[C@@H]1CCCN(c2cncc(NC(=O)c3cccc(-c4cccc(CC(C)(C)C(=O)O)c4)c3)n2)C1 [Example 129]	YES
CCOc1ccccc1O[C@@H]1CCCN(c2cncc(NC(=O)c3ccc(OC(C)(C)C(=O)O)cc3)n2)C1 [Example 14]	NO
CCOc1ccccc1O[C@@H]1CCCN(c2cncc(NC(=O)C3CCN(c4ccc(C(=O)O)cn4)C3)n2)C1 (stereo partly shown) [Example 87]	YES
CCOc1ccccc1O[C@@H]1CCCN(c2cncc(NC(=O)CC(C)(C)C(=O)O)n2)C1 [Example 22]	NO
CCOc1ccccc1O[C@@H]1CCCN(c2cncc(NC(=O)c3cc(F)c(N4CCC(CC(=O)O)CC4)c(F)c3)n2)C1 [Example 58]	NO
CCOc1ccccc1O[C@@H]1CCCN(c2cncc(NC(=O)Cc3cccc(Cl)c3)n2)C1 [Example 30]	YES
CCOc1ccccc1O[C@@H]1CCCN(c2cncc(NC(=O)C(C)(C)c3ccc(N4CCC(C(=O)O)CC4)cc3)n2)C1 [Example 86]	NO

---

SYSTEM_NAME: Recombinant human DGAT2 protein (Homo sapiens, UniProt Q96PD7)
Construct: FLAG (DYKDDDDK); (N); used as a membrane preparation
ASSAY_OVERVIEW: Measurement of inhibitory effect against DGAT2 enzyme activity (SPA, Phospholipid FlashPlate, [14C]-TG production)
CONDITION_DESCRIPTION: concentration inhibiting [14C]-labeled triacyl glycerol (TG) production by 50%; 2 μg DGAT2-membrane protein from Sf-21 cells, 37° C.
Consider the cut-off 100 nM. If the recorded IC50 is strictly smaller, the label is true; if not, the label is false.

MOLECULE	CLASS_NAME
CC(C)(Cc1ccc(CC(=O)Nc2cncc(N3CCC[C@@H](Oc4ccccc4OCCF)C3)n2)cc1)C(=O)O [Example 94]	false
CCOc1ccccc1O[C@@H]1CCCN(c2cccc(NC(=O)Cc3ccc(C(C)(C)C(=O)O)cc3)n2)C1 [Example 68]	false
CCOc1ccccc1O[C@@H]1CCCN(c2cncc(NC(=O)CC34CCC(C(=O)O)(CC3)CC4)n2)C1 [Example 118]	false
CCOc1ccccc1O[C@@H]1CCCN(c2cc(C(F)(F)F)nc(NC(=O)Cc3ccc(CC(C)(C)C(=O)O)cc3)n2)C1 [Example 72]	false
CCOc1ccccc1O[C@@H]1CCCN(c2cncc(NC(=O)Cc3cc(C(F)(F)F)cc(C(F)(F)F)c3)n2)C1 [Example 27]	true
CCOc1ccccc1O[C@@H]1CCCN(c2cncc(NC(=O)Cc3cccc(C(F)(F)F)c3)n2)C1 [Example 26]	true
CCOc1ccccc1O[C@@H]1CCCN(c2cncc(NC(=O)C3CCN(c4ccc(CC(=O)O)cc4)CC3)n2)C1 [Example 79]	false
CC(C)(C(=O)O)c1ccc(CCC(=O)Nc2cncc(N3CCC[C@@H](Oc4ccccc4OCCF)C3)n2)cc1 [Example 93]	false
CCOc1ccccc1O[C@@H]1CCCN(c2cncc(NC(=O)C3CCN(C(=O)CCC(=O)O)CC3)n2)C1 [Example 83]	false

---

SYSTEM_NAME: Recombinant human DGAT2 protein (Homo sapiens)
Construct: FLAG (DYKDDDDK); (N); used as a membrane preparation
ASSAY_OVERVIEW: Measurement of inhibitory effect against DGAT2 enzyme activity (SPA, Phospholipid FlashPlate, [14C]-TG production)
CONDITION_DESCRIPTION: concentration inhibiting [14C]-labeled triacyl glycerol (TG) production by 50%; 2 μg DGAT2-membrane protein from Sf-21 cells, 37° C.
pIC50: −log10 of the molar value.
METRIC: pIC50

SMILES_STR	OBSERVED_RESULT
CCOc1ccccc1O[C@@H]1CCCN(c2cncc(NC(=O)Cc3ccc(C[C@@H](C)C(=O)O)cc3)n2)C1	6.85
CCOc1ccccc1O[C@@H]1CCCN(c2cncc(NC(=O)CCc3cc(Cl)c(C(=O)O)c(Cl)c3)n2)C1	7.06
CCOc1ccccc1O[C@@H]1CCCN(c2cncc(NC(=O)CCc3ccc(CCC(=O)O)cc3)n2)C1	6.82
CC(C)(C(=O)O)c1ccc(CCC(=O)Nc2cncc(N3CCC[C@@H](Oc4ccccc4OC4CCC4)C3)n2)cc1	7.09

Numbers sourced from patent US12637440B2.
